method notes: probe aLefty2 binding to arrayed compounds – biochemical, biotinylated probe, 635/667 nm fluorescence, primary screen (AID 1094);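 note: score merges spot fluorescence near 667 nm with spot signal-to-noise ratio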
condition description: small-molecule microarray, higher = more signal
attribute measured: composite z-score
Give bare numbers.

Recorded results for 3 compounds are shown here.
> print(dat)
                                   compound  measured.result
1  [N-]=[N+]=Nc1ccccc1[C@@H]1OC(c2ccc(OCCCO)cc2)=N[C@]1(Cc1ccccc1)C(=O)O            0.106
2  CC1CC/C=C\[C@H]2OC34C=CCN(C(C)C)C(=O)[C@H]3N(CCO)C(=O)[C@@H]4C2C(=O)O1 (some centres undefined)           -0.159
3  COc1ccc(CCNC(=O)[C@@H]2c3ccccc3C(=O)N(C3CCCCC3)[C@H]2c2ccc(CO)cc2)cc1          -0.0671

Could you now look at the following compound, please?
Prompt: Reported composite z-score for CC(=O)NCCCC[C@@H]1NC(=O)[C@@H]2C[C@H](C(=O)NCCCCCN)[C@H](c3ccc(O)cc3)N2C1=O : what is it?
Response: 0.5

###

method notes: growth effects on S. cerevisiae YJM789 – YJM789 clinical isolate, OD600, 24 h, basal, primary screen (AID 1089);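 note: growth of clinical yeast isolate S. cerevisiae YJM 789 seeded 1000 cells per well; test concentration not given here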
condition description: higher = more signal, called active from +8 up or from −8 down
attribute measured: z-score
Give bare numbers.

Recorded results for 4 molecules are shown here.
molecule	measured result
O=C1C[C@]2(c3ccc([N+](=O)[O-])cc3)C(=O)N(C3CC3)c3cc(CO)ccc3[C@H]2N1CC12CC3CC(CC(C3)C1)C2	-0.263
C=C[C@H]1C(C(=O)OCC)=CC[C@@H](c2ccccc2)N1S(=O)(=O)c1ccc(C)cc1	0.293
CCOC(=O)[C@@H]1CCCCN1C(=O)C(=O)OC	0.0293
[N-]=[N+]=Nc1ccccc1C[C@]1(C(=O)NCCN2CCOCC2)COC(c2ccc(OCCCO)cc2)=N1	-0.877

Hi, could you look up z-score for each item in my list?
1. COc1ccc(CCNC(=O)[C@@]2(c3ccc([N+](=O)[O-])cc3)CC(=O)N(C3CCCCC3)[C@@H]2c2ccc(CO)cc2)cc1
2. CCCCN1CC=CC23O[C@@H]4/C=C\CCCOC(=O)C4[C@H]2C(=O)N(CCO)[C@@H]3C1=O (stereo partly drawn)
3. NCCCCCCNC(=O)[C@@H]1C[C@@H]2C(=O)N[C@@H](CCCCN)C(=O)N2[C@@H]1c1ccc(O)cc1
4. C=CCNC(=O)[C@@H]1[C@H]2C(=O)O[C@H](c3ccccc3)[C@H](c3ccccc3)N2[C@H](c2ccccc2OCCO)[C@@]12C(=O)Nc1ccc(C#CCC(C(=O)OC)C(=O)OC)cc12

Response:
[0.812, 0.812, -0.171, 1.13]

###

system under test: NADPH oxidase 5 (Homo sapiens) (UniProt Q96PH1)
Sequence (Q96PH1 whole entry, looked up): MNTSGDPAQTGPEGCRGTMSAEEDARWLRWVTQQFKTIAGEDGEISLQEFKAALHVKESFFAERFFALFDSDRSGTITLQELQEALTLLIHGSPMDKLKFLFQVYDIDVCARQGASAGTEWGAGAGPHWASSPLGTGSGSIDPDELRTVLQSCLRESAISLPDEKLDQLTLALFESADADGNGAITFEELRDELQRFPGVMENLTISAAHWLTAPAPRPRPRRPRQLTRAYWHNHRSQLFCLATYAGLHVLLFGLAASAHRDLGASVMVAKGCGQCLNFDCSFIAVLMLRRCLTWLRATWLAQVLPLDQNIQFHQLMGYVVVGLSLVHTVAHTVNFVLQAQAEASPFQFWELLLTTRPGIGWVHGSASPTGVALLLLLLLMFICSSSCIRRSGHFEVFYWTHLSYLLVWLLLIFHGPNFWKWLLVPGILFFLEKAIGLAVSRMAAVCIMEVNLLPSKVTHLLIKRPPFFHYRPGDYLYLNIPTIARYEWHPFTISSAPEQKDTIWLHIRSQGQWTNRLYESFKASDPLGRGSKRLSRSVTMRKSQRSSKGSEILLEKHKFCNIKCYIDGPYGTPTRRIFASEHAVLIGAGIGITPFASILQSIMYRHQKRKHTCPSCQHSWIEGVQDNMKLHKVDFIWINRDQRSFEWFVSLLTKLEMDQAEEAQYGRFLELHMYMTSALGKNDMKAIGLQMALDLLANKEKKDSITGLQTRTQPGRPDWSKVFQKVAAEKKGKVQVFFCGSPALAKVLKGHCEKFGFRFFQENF
method notes: compounds shifting NOX5 Amplex Red fluorescence – cell-based, HEK293-NOX5, NOX inhibitor project, primary screen (AID 1161)
condition description: HEK293-NOX5, ionomycin, 45 min, higher = more signal
What z-score was measured for each of the following?

molecule	measured result
[N-]=[N+]=Nc1ccccc1C[C@@]1(C(=O)NCCN2CCOCC2)N=C(c2ccc(OCCCO)cc2)O[C@@H]1c1ccccc1N=[N+]=[N-]	-1.6

Hi, could you look up z-score for each item in my list?
1. COC(=O)C1=CC(CCCO)=CC(c2cccs2)N(Cc2cccc(OC(F)(F)F)c2)C=C1C(=O)OC (configuration not stated)
2. COCCOC(=O)N1C(=O)[C@@]2(c3cc(C#CC4=CCCCC4)ccc31)[C@H](C(=O)Nc1nc3ccccc3s1)[C@H]1C(=O)O[C@H](c3ccccc3)[C@H](c3ccccc3)N1[C@@H]2c1ccc(O)cc1
3. C=CCNC(=O)[C@@H]1[C@H]2C(=O)O[C@H](c3ccccc3)[C@H](c3ccccc3)N2[C@H](c2ccccc2OCCO)[C@@]12C(=O)Nc1ccc(C#CCC(C(=O)OC)C(=O)OC)cc12

Response:
1: -0.0441; 2: 0.759; 3: 1.98

Hi, could you look up z-score for each item in my list?
1. CC(C)C[C@@H]1NC(=O)[C@@H]2C[C@H](C(=O)NCCCCCCN)[C@H](c3cccc(OCCO)c3)N2C1=O
2. O=C(NCCN1CCOCC1)[C@@H]1c2ccccc2C(=O)N(Cc2ccccc2Cl)[C@H]1c1ccc(CO)cc1
3. C#Cc1cc2ccccc2oc1=O

Response:
1. 1.99
2. -0.371
3. -0.807

###

method notes: S6 kinase pathway phospho-S6 level changes – cell-based, A549, cytoblot, luminescence, serum-stimulated, primary screen (AID 1158);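 note: serum-stimulated A549 lung adenocarcinoma cells; signal is phosphorylated S6 detected by cytoblot immunostaining with HRP secondary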
condition description: 5 h, higher = more signal
Outcome: YES for z-score of at least -0.04; NO for anything lower.

Use these answered entries as a reference point.
> print(dat)
                                   molecule  class
1  [N-]=[N+]=Nc1ccccc1C[C@@]1(C(=O)N2CCOCC2)N=C(c2ccc(OCCCO)cc2)O[C@@H]1c1ccccc1     NO
2  C#CCN([C@@H](Cc1ccccc1)C(=O)OC)[C@@H](/C=C/C1CC1)[C@H](O)Cc1ccccc1     NO
3  Cc1ccc(S[C@]2(C(=O)O)CC(=O)N(C3CCCCC3)[C@@H]2c2ccc(CO)cc2I)cc1    YES
4  COC(=O)C/C=C/C[C@]1(O)C(=O)N(C)c2ccccc21    YES

Then there is this compound:
Prompt: Given CCOC(=O)C[C@H]1[C@H](OC(=O)Cc2ccc3c(c2)OCO3)[C@@H](NC(=O)C2CCCCC2)c2cc(OCCCO)ccc2N1C(=O)c1ccccc1 , state whether its z-score is at least -0.04.
Response: YES

###

system under test: Neurogenic locus notch homolog protein 2 (Homo sapiens) (UniProt Q04721)
Sequence (Q04721 whole entry, looked up): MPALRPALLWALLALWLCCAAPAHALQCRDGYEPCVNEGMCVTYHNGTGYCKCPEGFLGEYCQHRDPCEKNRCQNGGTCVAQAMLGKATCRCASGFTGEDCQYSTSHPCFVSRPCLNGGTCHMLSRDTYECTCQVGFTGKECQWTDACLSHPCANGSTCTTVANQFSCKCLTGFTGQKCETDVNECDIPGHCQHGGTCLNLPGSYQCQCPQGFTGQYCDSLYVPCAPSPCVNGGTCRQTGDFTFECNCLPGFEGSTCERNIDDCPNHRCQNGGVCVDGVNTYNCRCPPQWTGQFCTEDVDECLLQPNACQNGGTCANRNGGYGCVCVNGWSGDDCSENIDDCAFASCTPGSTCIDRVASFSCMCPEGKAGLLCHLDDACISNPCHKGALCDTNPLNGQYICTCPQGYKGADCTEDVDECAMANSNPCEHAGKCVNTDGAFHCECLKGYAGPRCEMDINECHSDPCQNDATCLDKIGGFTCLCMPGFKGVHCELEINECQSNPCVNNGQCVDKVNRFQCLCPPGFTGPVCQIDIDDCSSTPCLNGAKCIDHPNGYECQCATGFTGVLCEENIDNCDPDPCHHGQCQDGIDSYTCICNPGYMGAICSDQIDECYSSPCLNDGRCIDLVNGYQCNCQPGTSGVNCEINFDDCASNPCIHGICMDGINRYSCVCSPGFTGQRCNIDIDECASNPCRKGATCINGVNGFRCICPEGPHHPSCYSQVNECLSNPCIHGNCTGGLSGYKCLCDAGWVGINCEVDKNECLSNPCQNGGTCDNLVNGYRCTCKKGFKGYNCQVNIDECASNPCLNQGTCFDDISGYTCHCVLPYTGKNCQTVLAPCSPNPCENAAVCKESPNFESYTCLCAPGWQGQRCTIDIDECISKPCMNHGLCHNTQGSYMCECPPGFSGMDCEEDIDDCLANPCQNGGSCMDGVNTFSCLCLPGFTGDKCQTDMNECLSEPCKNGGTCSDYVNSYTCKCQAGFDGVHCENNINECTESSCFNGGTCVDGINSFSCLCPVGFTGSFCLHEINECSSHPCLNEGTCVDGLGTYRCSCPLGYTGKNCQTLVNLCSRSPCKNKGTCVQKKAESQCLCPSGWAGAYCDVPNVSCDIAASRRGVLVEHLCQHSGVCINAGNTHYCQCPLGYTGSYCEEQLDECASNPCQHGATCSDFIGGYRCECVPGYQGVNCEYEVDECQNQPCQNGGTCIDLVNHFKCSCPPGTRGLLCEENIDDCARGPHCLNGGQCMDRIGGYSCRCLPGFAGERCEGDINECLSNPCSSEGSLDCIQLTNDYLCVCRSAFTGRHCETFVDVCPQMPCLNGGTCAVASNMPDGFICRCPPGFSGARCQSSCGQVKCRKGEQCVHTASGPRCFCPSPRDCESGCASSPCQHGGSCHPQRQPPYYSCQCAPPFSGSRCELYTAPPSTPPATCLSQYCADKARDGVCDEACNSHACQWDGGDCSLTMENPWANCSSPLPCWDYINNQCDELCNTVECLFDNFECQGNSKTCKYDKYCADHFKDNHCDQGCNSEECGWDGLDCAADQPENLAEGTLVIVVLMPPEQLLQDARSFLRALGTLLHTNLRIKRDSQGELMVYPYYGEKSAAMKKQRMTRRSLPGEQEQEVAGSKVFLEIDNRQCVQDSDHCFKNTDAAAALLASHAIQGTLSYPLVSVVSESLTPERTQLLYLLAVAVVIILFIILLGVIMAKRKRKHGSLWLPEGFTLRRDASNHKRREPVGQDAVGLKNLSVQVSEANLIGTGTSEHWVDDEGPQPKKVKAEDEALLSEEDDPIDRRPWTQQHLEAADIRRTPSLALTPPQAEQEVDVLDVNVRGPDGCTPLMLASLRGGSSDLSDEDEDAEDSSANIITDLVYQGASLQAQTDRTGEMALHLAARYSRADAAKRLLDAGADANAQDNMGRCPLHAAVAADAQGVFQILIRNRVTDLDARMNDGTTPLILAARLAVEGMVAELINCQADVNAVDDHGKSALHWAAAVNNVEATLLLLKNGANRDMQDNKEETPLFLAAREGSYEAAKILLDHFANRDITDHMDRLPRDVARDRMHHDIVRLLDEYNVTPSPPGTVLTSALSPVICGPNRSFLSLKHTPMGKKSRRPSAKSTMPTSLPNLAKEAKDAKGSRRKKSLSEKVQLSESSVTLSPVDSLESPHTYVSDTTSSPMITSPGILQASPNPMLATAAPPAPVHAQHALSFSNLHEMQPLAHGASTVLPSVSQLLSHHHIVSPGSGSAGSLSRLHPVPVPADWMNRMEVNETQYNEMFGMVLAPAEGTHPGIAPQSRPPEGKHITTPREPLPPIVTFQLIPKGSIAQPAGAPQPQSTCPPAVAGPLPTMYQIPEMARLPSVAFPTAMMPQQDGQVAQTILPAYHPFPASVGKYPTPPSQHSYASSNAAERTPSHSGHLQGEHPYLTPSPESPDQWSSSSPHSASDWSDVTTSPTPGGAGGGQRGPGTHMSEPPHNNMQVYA
method notes: small molecules binding Notch2 protein – biochemical, small-molecule microarray, 635 nm fluorescence, stem cell growth factors, primary screen (AID 1073)
condition description: higher = more signal
Outcome: 1 for composite z-score of at least 0.7; 0 for anything lower.

Use these answered entries as a reference point.
compound	class
CC1CC/C=C\[C@H]2OC34C=CCN(C(C)(C)C)C(=O)[C@H]3N(CCCCCO)C(=O)[C@@H]4C2C(=O)O1 (stereo partly specified)	0
C=CCOC(=O)[C@@]1(Cc2ccccc2)C[C@H]2CO[C@H](c3ccc(OC)cc3)N2C1=O	0
O=C1O[C@@H](c2ccccc2)[C@@H](c2ccccc2)N2[C@@H](c3ccc(O)cc3)[C@]3(C(=O)Nc4ccc(C#CCCO)cc43)[C@@H](C(=O)N3CCN(c4ncccn4)CC3)[C@H]12	1
CO[C@H]1O[C@H](CO)[C@@H](OC(=O)Nc2ccc3c(c2)OCO3)[C@H](OC(=O)Nc2ccc3c(c2)OCO3)[C@@H]1OC(=O)Nc1ccc2c(c1)OCO2	1
CCCCN1CC=CC23O[C@@H]4/C=C\CCCOC(=O)C4[C@H]2C(=O)N(CCO)[C@@H]3C1=O (stereo partly specified)	0

Prompt: Given CCOC(=O)C[C@H]1[C@H](OC(=O)c2ccc(C(=O)c3ccccc3)cc2)[C@@H](NC(=O)C2CCCCC2)c2cc(OCCCO)ccc2N1C(=O)c1ccc2ccccc2n1 , state whether its composite z-score is at least 0.7.
Response: 1

Prompt: Given Cn1cccc1C(O)C1C=CC2C(=O)N(c3ccccc3)C(=O)C2N1Nc1ccccc1 (stereo unspecified) , state whether its composite z-score is at least 0.7.
Response: 1

Prompt: Given N[C@@H](Cc1ccccc1)C(=O)NCc1cn(Cc2ccccc2)nn1 , state whether its composite z-score is at least 0.7.
Response: 0

Prompt: Given O=C(NCCN1CCOCC1)[C@@H]1c2ccccc2C(=O)N(Cc2ccccc2Cl)[C@H]1c1ccc(CO)cc1 , state whether its composite z-score is at least 0.7.
Response: 0

Prompt: Given CC[C@@H]1C=C(C(=O)O)[C@H](c2ccccc2)N1S(=O)(=O)c1ccc(C)cc1 , state whether its composite z-score is at least 0.7.
Response: 1

###

system under test: NADPH oxidase 2 (Homo sapiens) (UniProt P04839)
Sequence (P04839 whole entry, looked up): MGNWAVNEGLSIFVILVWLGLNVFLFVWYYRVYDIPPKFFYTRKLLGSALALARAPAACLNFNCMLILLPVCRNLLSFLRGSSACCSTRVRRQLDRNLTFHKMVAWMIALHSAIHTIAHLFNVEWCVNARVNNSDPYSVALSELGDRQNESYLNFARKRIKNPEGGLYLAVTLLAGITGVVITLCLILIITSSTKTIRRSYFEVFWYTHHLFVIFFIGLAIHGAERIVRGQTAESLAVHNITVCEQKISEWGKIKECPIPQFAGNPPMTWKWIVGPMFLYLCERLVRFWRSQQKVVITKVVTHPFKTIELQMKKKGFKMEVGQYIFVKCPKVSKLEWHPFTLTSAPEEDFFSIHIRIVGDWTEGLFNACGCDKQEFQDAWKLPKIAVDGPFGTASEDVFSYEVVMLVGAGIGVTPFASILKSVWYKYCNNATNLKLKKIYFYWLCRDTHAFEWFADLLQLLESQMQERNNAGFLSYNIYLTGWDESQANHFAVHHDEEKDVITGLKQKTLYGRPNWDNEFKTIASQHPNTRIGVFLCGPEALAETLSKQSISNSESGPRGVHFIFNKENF
method notes: compounds shifting NOX2 Amplex Red fluorescence – cell-based, HEK293-NOX2, PMA-stimulated, NOX inhibitor project, primary screen (AID 1159); note: test concentration not given here
condition description: 45 min, higher = more signal, called active from +8 up or from −8 down
What z-score was measured for each of the following?
Give bare numbers.

Recorded results for 2 molecules are shown here.
molecule	system under test	attribute measured	measured result
C=CC[C@@H](OC(=O)Nc1ccc(SC)cc1)c1ccc(O)c(F)c1	NADPH oxidase 2 (Homo sapiens) (UniProt P04839)	z-score	-5.77
COCCOC(=O)N1C(=O)[C@@]2(c3cc(C#CC4(O)CCCCCC4)ccc31)[C@H](c1ccc(O)cc1)N1[C@H](c3ccccc3)[C@H](c3ccccc3)OC(=O)[C@H]1[C@@H]2C(=O)N1CCN(c2ncccn2)CC1	NADPH oxidase 2 (Homo sapiens) (UniProt P04839)	z-score	1.54

Could you now look at the following molecule, please?
Prompt: Param readout= z-score; system= NADPH oxidase 2 (Homo sapiens) (UniProt P04839); entry= COCC(=C=CC[C@H](O)c1ccc(OCCO)cc1)CCO ; returns value.
Response: 1.03
